assay: Particle size and PDI of lipid nanoparticles by dynamic light scattering; format: physicochemical; details: lipid nanoparticles with luciferase mRNA; ionizable lipid/cholesterol/DSPC/DMG-PEG2000 50/38.5/10/1.5 mol%
property_name: Particle size (nm)

> print(dat)
                                   molecule  reported.value
1  CCCCCCCCCC(=O)OCC1(CCCCCN(CCCCCCCC(=O)OCC(CCCCCCC)CCCCCCC)C(=O)SCCCCN(C)C)CC1 [44b]        92.63 nm
2  CCCCCCCCCCOC(=O)CCCC(C)(C)CCN(CCO)CCCCCCCC(=O)OCCC(CCCCCC)CCCCCC [28a]       110.30 nm
3  CCCCCCCCCC(=O)OCCC(C)(C)CCCCN(CCCCO)CCCCCCC(=O)OCCC(CCCCCCC)CCCCCCC [104b]       135.57 nm
4  CCCCCCCCCCCOC(=O)CCCCC(C)(C)CCN(CCO)CCCCCCCC(=O)OC(CCCCCCCCCC)CCCCCCCCCC [64a]        86.99 nm
5  CCCCCCCCCC(=O)OCCCC(C)(C)CCCN(CCCO)CCCCCCC(=O)OCCCC(CCCCCC)CCCCCC [83b]       100.67 nm
6  CCCCCCCCCOC(=O)CCCCCCCN(CCO)CCCCCCC(C)(C)C(=O)OC(CCCCCCCC)CCCCCCCC [1a]       113.08 nm
7  CCCCCCCCCOC(=O)CCCCCCCN(CCCO)CCCCCCC(C)(C)C(=O)OC(CCCCCCCC)CCCCCCCC [4a]        103.7 nm
8  CCCCCCCCCC(=O)OCC(C)(C)CCCCCN(CCO)CCCCCCCC(=O)OCCCCC(CCCC)CCCC [12b]       104.60 nm
